- TARGET_DESC: T1, HCV ORFs (Gal4-DB fusions) (Hepatitis C virus genotype 1b, UniProt Q9WMX2);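 also: yeast two-hybrid screens using HCV genotype 1b proteins fused to Gal4-DB as baits against prey cDNA libraries from human spleen and foetal brain, IMAP1 via transformation and IMAP2 via mating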
- T1 construct: expressed in transfected cells; host or cells: Saccharomyces cerevisiae MAV203 (IMAP1) / AH109 (IMAP2)
- Type: binding, HCV genotype 1b, isolate con1
- RUN_CONDITIONS: HCV protein NS3 as bait; human protein as prey
PARAMETER: IMAP Y2H IMAP1 (number of IST)

* CD5L (protein, UniProt O43866 20-347, looked up) CD5 antigen-like: SPSGVRLVGGLHRCEGRVEVEQKGQWGTVCDDGWDIKDVAVLCRELGCGAASGTPSGILYEPPAEKEQKVLIQSVSCTGTEDTLAQCEQEEVYDCSHDEDAGASCENPESSFSPVPEGVRLADGPGHCKGRVEVKHQNQWYTVCQTGWSLRAAKVVCRQLGCGRAVLTQKRCNKHAYGRKPIWLSQMSCSGREATLQDCPSGPWGKNTCNHDEDTWVECEDPFDLRLVGGDNLCSGRLEVLHKGVWGSVCDDNWGEKEDQVVCKQLGCGKSLSPSFRDRKCYGPGVGRIWLDNVRCSGEEQSLEQCQHRFWGFHDCTHQEDVAVICSG | 1
* CBY1 (protein, UniProt Q9Y3M2 1-126, looked up) Protein chibby homolog 1: MPFFGNTFSPKKTPPRKSASLSNLHSLDRSTREVELGLEYGSPTMNLAGQSLKFENGQWIAETGVSGGVDRREVQRLRRRNQQLEEENNLLRLKVDILLDMLSESTAESHLMEKELDELRISRKRK | 2
* GNB2 (protein, UniProt P62879 2-340, looked up) Guanine nucleotide-binding …: SELEQLRQEAEQLRNQIRDARKACGDSTLTQITAGLDPVGRIQMRTRRTLRGHLAKIYAMHWGTDSRLLVSASQDGKLIIWDSYTTNKVHAIPLRSSWVMTCAYAPSGNFVACGGLDNICSIYSLKTREGNVRVSRELPGHTGYLSCCRFLDDNQIITSSGDTTCALWDIETGQQTVGFAGHSGDVMSLSLAPDGRTFVSGACDASIKLWDVRDSMCRQTFIGHESDINAVAFFPNGYAFTTGSDDATCRLFDLRADQELLMYSHDNIICGITSVAFSRSGRLLLAGYDDFNCNIWDAMKGDRAGVLAGHDNRVSCLGVTDDGMAVATGSWDSFLKIWN | 1
* CTGF (protein, UniProt P29279 27-349, looked up) CCN family member 2: QNCSGPCRCPDEPAPRCPAGVSLVLDGCGCCRVCAKQLGELCTERDPCDPHKGLFCHFGSPANRKIGVCTAKDGAPCIFGGTVYRSGESFQSSCKYQCTCLDGAVGCMPLCSMDVRLPSPDCPFPRRVKLPGKCCEEWVCDEPKDQTVVGPALAAYRLEDTFGPDPTMIRANCLVQTTEWSACSKTCGMGISTRVTNDNASCRLEKQSRLCMVRPCEADLEENIKKGKKCIRTPKISKPIKFELSGCTSMKTYRAKFCGVCTDGRCCTPHRTTTLPVEFKCPDGEVMKKNMMFIKTCACHYNCPGDNDIFESLYYRKMYGDMA | 1
* SERTAD1 (protein, UniProt Q9UHV2 1-236, looked up) SERTA domain-containing …: MLSKGLKRKREEEEEKEPLAVDSWWLDPGHTAVAQAPPAVASSSLFDLSVLKLHHSLQQSEPDLRHLVLVVNTLRRIQASMAPAAALPPVPSPPAAPSVADNLLASSDAALSASMASLLEDLSHIEGLSQAPQPLADEGPPGRSIGGAAPSLGALDLLGPATGCLLDDGLEGLFEDIDTSMYDNELWAPASEGLKPGPEDGPGKEEAPELDEAELDYLMDVLVGTQALERPPGPGR | 3
* HOMER3 (protein, UniProt Q9NSC5 1-361, looked up) Homer protein homolog 3: MSTAREQPIFSTRAHVFQIDPATKRNWIPAGKHALTVSYFYDATRNVYRIISIGGAKAIINSTVTPNMTFTKTSQKFGQWADSRANTVYGLGFASEQHLTQFAEKFQEVKEAARLAREKSQDGGELTSPALGLASHQVPPSPLVSANGPGEEKLFRSQSADAPGPTERERLKKMLSEGSVGEVQWEAEFFALQDSNNKLAGALREANAAAAQWRQQLEAQRAEAERLRQRVAELEAQAASEVTPTGEKEGLGQGQSLEQLEALVQTKDQEIQTLKSQTGGPREALEAAEREETQQKVQDLETRNAELEHQLRAMERSLEEARAERERARAEVGRAAQLLDVSLFELSELREGLARLAEAAP | 4
* RCN3 (protein, UniProt Q96D15 21-328, looked up) Reticulocalbin-3: KPSPDAGPHGQGRVHQAAPLSDAPHDDAHGNFQYDHEAFLGREVAKEFDQLTPEESQARLGRIVDRMDRAGDGDGWVSLAELRAWIAHTQQRHIRDSVSAAWDTYDTDRDGRVGWEELRNATYGHYAPGEEFHDVEDAETYKKMLARDERRFRVADQDGDSMATREELTAFLHPEEFPHMRDIVIAETLEDLDRNKDGYVQVEEYIADLYSAEPGEEEPAWVQTERQQFRDFRDLNKDGHLDGSEVGHWVLPPAQDQPLVEANHLLHESDTDKDGRLSKAEILGNWNMFVGSQATNYGEDLTRHHDEL | 2
* DPF1 (protein, UniProt Q92782 1-387, looked up) Zinc finger protein neuro-d4: MATVIPGPLSLGEDFYREAIEHCRSYNARLCAERSLRLPFLDSQTGVAQNNCYIWMEKTHRGPGLAPGQIYTYPARCWRKKRRLNILEDPRLRPCEYKIDCEAPLKKEGGLPEGPVLEALLCAETGEKKIELKEEETIMDCQKQQLLEFPHDLEVEDLEDDIPRRKNRAKGKAYGIGGLRKRQDTASLEDRDKPYVCDICGKRYKNRPGLSYHYTHTHLAEEEGEENAERHALPFHRKNNHKQFYKELAWVPEAQRKHTAKKAPDGTVIPNGYCDFCLGGSKKTGCPEDLISCADCGRSGHPSCLQFTVNMTAAVRTYRWQCIECKSCSLCGTSENDDQLLFCDDCDRGYHMYCLSPPMAEPPEGSWSCHLCLRHLKEKASAYITLT | 1
